Target: Muscarinic acetylcholine receptor M1 (Homo sapiens)
Sequence (P11229 whole entry): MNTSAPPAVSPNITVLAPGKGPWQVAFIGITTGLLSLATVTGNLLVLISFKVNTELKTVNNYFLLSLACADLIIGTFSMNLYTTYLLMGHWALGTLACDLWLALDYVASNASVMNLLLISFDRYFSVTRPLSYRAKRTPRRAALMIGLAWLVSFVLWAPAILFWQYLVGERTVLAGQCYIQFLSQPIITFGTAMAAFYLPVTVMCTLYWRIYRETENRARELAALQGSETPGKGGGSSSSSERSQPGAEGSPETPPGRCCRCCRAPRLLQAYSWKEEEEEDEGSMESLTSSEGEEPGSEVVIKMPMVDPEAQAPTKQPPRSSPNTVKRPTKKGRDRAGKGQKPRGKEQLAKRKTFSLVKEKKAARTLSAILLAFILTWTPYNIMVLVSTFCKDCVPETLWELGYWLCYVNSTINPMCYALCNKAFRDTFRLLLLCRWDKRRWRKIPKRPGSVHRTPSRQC
Experiment: ChEBML_1712853
ENDPOINT: pEC50
The value called pEC50 is obtained by taking minus log10 of the concentration in mol/L.

What does the data say about its pEC50? Entry: O=C(N[C@H]1CCCC[C@@H]1O)C1CN(Cc2ccc(-n3cccn3)cc2)c2ccccc2O1 (stereo partly specified) 6.10
